- Tested on: lung carcinoma cell line NCI-H460
- TEST NAME: XTT proliferation assay, NCI-H460
- Type: cell-based, human
- EXPERIMENTAL PARAMETERS: Homo sapiens; NCI-H460 cells, 45 h incubation; read-out: XTT proliferation assay, EC50, NCI-H460
Collected log10(EC50) values appear next to each entry.
Answers are given as log10 of EC50 in µg/mL.

Look over these answered cases.
| MOLECULE | log10(EC50) |
| --- | --- |
| O=C(CCC(=O)OC1C(O)C(O)OC(CO)C1O)Oc1cccc(N2CCN(C(=O)c3c4ccccc4nc4ccccc34)CC2)c1 (stereo not drawn) [Compound 25] | -1.46 |
| CC(=O)Oc1cccc(N2CCN(C(=O)c3c4ccccc4nc4ccccc34)CC2)c1 [Compound 3] | -1.72 |
| CS(=O)(=O)Oc1cccc(N2CCN(C(=O)c3c4ccccc4nc4ccccc34)CC2)c1 [Compound 15] | -1.10 |
| CC(C)NC(=O)Oc1cccc(N2CCN(C(=O)c3c4ccccc4nc4ccccc34)CC2)c1 [Compound 2] | -1.21 |

What value of log10(EC50) has been reported for the following molecule? O=C(c1c2ccccc2nc2ccc(O)cc12)N1CCN(c2cccc(O)c2)CC1 [Compound 38]
-0.67

Which measured log10(EC50) value corresponds to O=C(NCCCl)Oc1cccc(N2CCN(C(=O)c3c4ccccc4nc4ccccc34)CC2)c1 [Compound 30] ?
-1.60

Any idea what log10(EC50) was measured for COC(=O)Oc1cccc(N2CCN(C(=O)c3c4ccccc4nc4ccccc34)CC2)c1 [Compound 5] ?
-1.68

Look up log10(EC50): CC1(C)OCC(C2OC3OC(C)(C)OC3C2OCCCCC(=O)Oc2cccc(N3CCN(C(=O)c4c5ccccc5nc5ccccc45)CC3)c2)O1 (stereo not drawn) [Compound 24]
-1.14

Given the molecule CN1CCN(C(=O)CCC(=O)Oc2cccc(N3CCN(C(=O)c4c5ccccc5nc5ccccc45)CC3)c2)CC1 [Compound 21] , what is its reported log10(EC50)?
-1.60

Given the molecule O=C(NCCN1CCOCC1)Oc1cccc(N2CCN(C(=O)c3c4ccccc4nc4ccccc34)CC2)c1 [Compound 29] , what is its reported log10(EC50)?
-1.57

Looking for the measured log10(EC50) of CC1(C)OCC(COC(=O)Oc2cccc(N3CCN(C(=O)c4c5ccccc5nc5ccccc45)CC3)c2)O1 (stereo not drawn) [Compound 16] , can you help?
-1.38

I'd like to know its log10(EC50). The molecule in question is O=C(NCCO)Oc1cccc(N2CCN(C(=O)c3c4ccccc4nc4ccccc34)CC2)c1 [Compound 7]
-1.44

====

- Test system: lung carcinoma cell line NCI-H460
- TEST NAME: XTT proliferation assay, NCI-H460
- Assay type: cell-based, human
- EXPERIMENTAL PARAMETERS: Homo sapiens; NCI-H460 cells, 45 h incubation; read-out: XTT proliferation assay, EC50, NCI-H460
ENDPOINT LABEL: EC50 (µg/mL)
Reply numerically in µg/mL, unit not repeated.

Known results for compounds:
| COMPOUND | ENDPOINT LABEL | MEASURE UNIT | MEASURED |
| --- | --- | --- | --- |
| O=C(OCCCl)Oc1cccc(N2CCN(C(=O)c3c4ccccc4nc4ccccc34)CC2)c1 | EC50 | µg/mL | 0.029 |
| COc1cccc(N2CCN(C(=O)c3c4ccccc4nc4ccc(O)cc34)CC2)c1 | EC50 | µg/mL | 0.067 |
| O=C(Oc1cccc(N2CCN(C(=O)c3c4ccccc4nc4ccccc34)CC2)c1)Oc1cccc(N2CCN(C(=O)c3c4ccccc4nc4ccccc34)CC2)c1 | EC50 | µg/mL | 0.026 |

Proceed to the following item.
Please report the recorded EC50 for O=C(CCCCOC1C(O)C(O)OC(CO)C1O)Oc1cccc(N2CCN(C(=O)c3c4ccccc4nc4ccccc34)CC2)c1 (stereo not shown) .
0.054

====

Entries annotated with measured solubility
- TEST NAME: Saturation solubility in water
- EXPERIMENTAL PARAMETERS: water, thermodynamic from solid
Please give a number only; it is taken to be in µg/mL.

Consider the compound shown here: O=C(CCC(=O)OC1C(O)C(O)OC(CO)C1O)Oc1cccc(N2CCN(C(=O)c3c4ccccc4nc4ccccc34)CC2)c1 (stereo not shown) [Compound 25] What is its recorded solubility?
215

Give its solubility value. Item: O=C(c1c2ccccc2nc2ccccc12)N1CCN(c2cccc(O)c2)CC1 [reference compound]
0.03

Consider the compound CN1CCN(C(=O)CCC(=O)Oc2cccc(N3CCN(C(=O)c4c5ccccc5nc5ccccc45)CC3)c2)CC1 [Compound 21] and give its measured solubility.
115

Bench note: what solubility did Cc1cccc(N2CCN(C(=O)c3c4ccccc4nc4ccccc34)CC2)n1 [reference compound] show?
1.07

Name the reported solubility value associated with the compound Cc1cccc(N2CCN(C(=O)c3c4ccccc4nc4cc(O)cc(O)c34)CC2)n1 [Compound 1]
83.9

Reported solubility, compound O=C(NCCN1CCOCC1)Oc1cccc(N2CCN(C(=O)c3c4ccccc4nc4ccccc34)CC2)c1 [Compound 29] : ____
41

Return reported solubility; argument: COc1cccc(N2CCN(C(=O)c3c4ccccc4nc4ccccc34)CC2)c1 [reference compound]
0.42

====

- Test system: bovine tubulin with 30% associated proteins (MAPs)
- TEST NAME: Tubulin polymerization assay
- Assay type: biochemical
- EXPERIMENTAL PARAMETERS: at 10 μg/ml; tubulin with 30% MAPs; average of two independent experiments
In this section we review reported Inhibition of tubulin polymerization in [% INH at 10 μg/ml] using 30% MAPs values for a set of compounds.
Don't forget the unit after the value.

Previously resolved entries follow.
| SMILES STR | MEASURED |
| --- | --- |
| COC(=O)Oc1cccc(N2CCN(C(=O)c3c4ccccc4nc4ccccc34)CC2)c1 | 94.3 % INH |
| O=C(OCCCl)Oc1cccc(N2CCN(C(=O)c3c4ccccc4nc4ccccc34)CC2)c1 | 70 % INH |
| CC(=O)Oc1cccc(N2CCN(C(=O)c3c4ccccc4nc4ccccc34)CC2)c1 | 87 % INH |

Kindly review the next compound as well.
Quick one: Inhibition of tubulin polymerization in [% INH at 10 μg/ml] using 30% MAPs for CS(=O)(=O)Oc1cccc(N2CCN(C(=O)c3c4ccccc4nc4ccccc34)CC2)c1 ?
94.8 % INH

====

- Tested on: bovine tubulin with 30% associated proteins (MAPs)
- TEST NAME: Tubulin polymerization assay
- Assay type: biochemical
- EXPERIMENTAL PARAMETERS: tubulin with 30% MAPs; average of two independent experiments
Inhibition of tubulin polymerization using 30% MAPs, EC50 for assorted molecules
Write the value in µg/mL as a bare number.

Solved cases below.
| MOLECULE | MEASURED |
| --- | --- |
| COC(=O)Oc1cccc(N2CCN(C(=O)c3c4ccccc4nc4ccccc34)CC2)c1 [Compound 5] | 1.08 |
| O=C(c1c2ccccc2nc2ccc(O)cc12)N1CCN(c2cccc(O)c2)CC1 [Compound 38] | 4.57 |
| CS(=O)(=O)Oc1cccc(N2CCN(C(=O)c3c4ccccc4nc4ccccc34)CC2)c1 [Compound 15] | 4.82 |
| CC(=O)Oc1cccc(N2CCN(C(=O)c3c4ccccc4nc4ccccc34)CC2)c1 [Compound 3] | 1.35 |

Note: attention shifts to another entry.
Quick one: Inhibition of tubulin polymerization using 30% MAPs, EC50 of COc1cccc(N2CCN(C(=O)c3c4ccccc4nc4ccc(O)cc34)CC2)c1 [Compound 37] ?
2.06
